Reference for the values: PubChem BioAssay (NCI)

In this section we review reported log10 of TGI values for a set of compounds.
Tested on: M14 melanoma
Experiment: NCI tumour cell line growth inhibition, 48 h
All values: log10 TGI [µM].

# example entries with known answers
{"columns": ["Compound", "Target Under Test", "log10 of TGI"],
 "data": [
  ["O=C(O/C=C\\OC1CCCC1(c1ccccc1)c1ccccc1)c1ccccc1 (stereo unspecified)", "M14 melanoma", 0.96],
  ["CN1C(=O)c2ccccc2OC12C=Cc1ccc(O)cc1O2 (stereo unspecified)", "M14 melanoma", 1.66],
  ["CCN(Cc1ccccc1C)c1ccc(CO)c(Cl)c1", "M14 melanoma", 1.49],
  ["CC1CC[C@@]2(OC1)OC1C[C@H]3[C@@H]4CC[C@H]5CC(OC6OC(CO)C(O)C(OC7OC(CO)C(OC8OC(CO)C(O)C(OC9OC(CO)C(O)C(O)C9O)C8OC8OC(CO)C(O)C(O)C8O)C(O)C7O)C6O)[C@H](O)CC5(C)[C@H]4CCC3(C)C1[C@@H]2C (stereo partly specified)", "M14 melanoma", 1.25]
]}

Problem: Specify measured log10 of TGI for `CN(CCO)c1ccc(N2Cc3ccccc3OC3=C2C(=O)c2c(O)ccc(O)c2C3=O)cn1` .
Solution: -0.39
